tested system: T1, RB69 DNA polymerase Pol+Exo+ (wild type gp43) (bacteriophage RB69, UniProt Q38087 1-903)
T1 sequence: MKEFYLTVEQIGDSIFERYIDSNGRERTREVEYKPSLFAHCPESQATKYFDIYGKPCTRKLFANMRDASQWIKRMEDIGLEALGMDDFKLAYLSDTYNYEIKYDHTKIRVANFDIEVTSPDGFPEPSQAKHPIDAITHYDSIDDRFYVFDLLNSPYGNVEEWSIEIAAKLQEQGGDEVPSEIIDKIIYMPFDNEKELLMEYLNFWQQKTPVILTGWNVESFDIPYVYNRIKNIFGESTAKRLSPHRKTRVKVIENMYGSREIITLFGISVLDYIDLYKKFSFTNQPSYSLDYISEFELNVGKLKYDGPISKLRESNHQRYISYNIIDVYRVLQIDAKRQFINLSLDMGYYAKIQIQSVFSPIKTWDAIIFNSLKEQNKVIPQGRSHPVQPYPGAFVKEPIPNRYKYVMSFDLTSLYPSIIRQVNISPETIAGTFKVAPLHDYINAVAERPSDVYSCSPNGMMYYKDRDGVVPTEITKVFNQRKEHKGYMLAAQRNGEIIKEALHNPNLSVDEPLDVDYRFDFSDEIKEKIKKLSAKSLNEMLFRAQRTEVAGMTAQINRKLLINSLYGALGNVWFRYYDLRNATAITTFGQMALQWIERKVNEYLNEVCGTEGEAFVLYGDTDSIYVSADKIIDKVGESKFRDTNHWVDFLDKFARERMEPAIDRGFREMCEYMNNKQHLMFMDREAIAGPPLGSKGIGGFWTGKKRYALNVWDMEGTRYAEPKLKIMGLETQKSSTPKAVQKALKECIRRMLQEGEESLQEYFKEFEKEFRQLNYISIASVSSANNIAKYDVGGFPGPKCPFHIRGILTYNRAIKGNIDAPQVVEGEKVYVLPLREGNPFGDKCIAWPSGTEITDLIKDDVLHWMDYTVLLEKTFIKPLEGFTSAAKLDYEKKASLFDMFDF
test: EMSA; apparent Kd; EMSA: 50 nM DNA, 7.5-500 nM Exo+ or 2.5-400 nM Exo- polymerase, native 6% PAGE; buffer, pH and temperature as in ref. 16
condition label: protein: recombinant; label: 5'-32P on primer (20-mer); 5' overhang 6 nt on template; other end blunt
readout type: Kd (nM)
Give bare numbers, in nM.

Input: Endpoint output: Kd of 20*/26-mer primer-template (dsDNA) DNA 1: AGCTACGCGGCTGTCATAAG DNA 2: TTGCGTCTTATGACAGCCGCGTAGCT . Value?
Output: 176
